Tested on: P. falciparum 3D7 trophozoites
Assay: Metabolomic fingerprint profiling LC-MS
Type: cell-based, Plasmodium falciparum
Settings: metabolite 3-phosphoglycerate, S2 Table Metabolomics
Listing of recorded 3-phosphoglycerate by entry.

[
  {
    "compound": "COc1ccc(-c2nc(NC(=O)CS(=O)(=O)c3ccc(F)cc3)sc2C)cc1 [MMV665915]",
    "test.target": "P. falciparum 3D7 trophozoites",
    "3-phosphoglycerate": -0.875
  },
  {
    "compound": "COc1ccc(-n2ccnc2SCC(=O)Nc2cc(C)ccc2C)c(OC)c1 [MMV019258]",
    "test.target": "P. falciparum 3D7 trophozoites",
    "3-phosphoglycerate": 0.6242
  },
  {
    "compound": "COc1ccccc1N=C1C(=O)c2ccccc2C(O)=C1N1CCCCC1 [MMV085203]",
    "test.target": "P. falciparum 3D7 trophozoites",
    "3-phosphoglycerate": 0.03547
  },
  {
    "compound": "CCOC(=O)c1c(C)n(-c2ccc(Cl)cc2)c2ccc(OC(=O)C=Cc3ccccc3)cc12 [MMV666600]",
    "test.target": "P. falciparum 3D7 trophozoites",
    "3-phosphoglycerate": 0.1223
  },
  {
    "compound": "COc1ccccc1CNC(=O)CCn1c(=O)[nH]c2ccsc2c1=O [MMV019066]",
    "test.target": "P. falciparum 3D7 trophozoites",
    "3-phosphoglycerate": -0.09413
  },
  {
    "compound": "COc1ccc2c(=O)cc(C(Cl)(Cl)Cl)oc2c1 [MMV665820]",
    "test.target": "P. falciparum 3D7 trophozoites",
    "3-phosphoglycerate": -2.392
  },
  {
    "compound": "Cc1cc(Nc2ccc(C)c(Cl)c2)n2nc(C(F)(F)F)nc2n1 [MMV665874]",
    "test.target": "P. falciparum 3D7 trophozoites",
    "3-phosphoglycerate": 0.03547
  },
  {
    "compound": "COc1ccc(C(C)=O)cc1N1C(=O)C2C(C1=O)C1(c3ccccc3)C(=O)C2(c2ccccc2)C(c2ccc(C)cc2)=C1c1ccc(C)cc1 (centres unmarked) [MMV007695]",
    "test.target": "P. falciparum 3D7 trophozoites",
    "3-phosphoglycerate": -0.5907
  },
  {
    "compound": "C[n+]1c2ccccc2nc2ccc(NCCO)cc21 [MMV396693]",
    "test.target": "P. falciparum 3D7 trophozoites",
    "3-phosphoglycerate": 0.5809
  },
  {
    "compound": "CCN(CC)CCNc1ncnc2c1[nH]c1ccc(Cl)cc12 [MMV396703]",
    "test.target": "P. falciparum 3D7 trophozoites",
    "3-phosphoglycerate": -0.08336
  },
  {
    "compound": "CCC1(C)CC(CCNCc2ccccc2O)(c2ccc(C)cc2)CCO1 (centres unmarked) [MMV019406]",
    "test.target": "P. falciparum 3D7 trophozoites",
    "3-phosphoglycerate": -0.1564
  },
  {
    "compound": "Cc1cc(NC(=O)C2c3ccccc3C(=O)N(CC(C)C)C2c2cccs2)no1 (centres unmarked) [MMV006429]",
    "test.target": "P. falciparum 3D7 trophozoites",
    "3-phosphoglycerate": 0.34
  },
  {
    "compound": "COc1ccc(-c2c(C)nn3c(N)c(C#N)cnc23)cc1OC [MMV396797]",
    "test.target": "P. falciparum 3D7 trophozoites",
    "3-phosphoglycerate": -0.332
  },
  {
    "compound": "CCCN(CCC)CC(O)COc1ccccc1C(=O)Nc1ccccc1 (centres unmarked) [MMV006455]",
    "test.target": "P. falciparum 3D7 trophozoites",
    "3-phosphoglycerate": 0.4787
  },
  {
    "compound": "COc1cccc(NC(=O)[C@H](C(C)C)n2c(=O)[nH]c3ccccc3c2=O)c1 [MMV665878]",
    "test.target": "P. falciparum 3D7 trophozoites",
    "3-phosphoglycerate": -0.5747
  },
  {
    "compound": "COc1ccc(NC(=O)C2c3ccccc3C(=O)N(CC(C)C)C2c2cccs2)cc1Cl (centres unmarked) [MMV000642]",
    "test.target": "P. falciparum 3D7 trophozoites",
    "3-phosphoglycerate": -0.2719
  },
  {
    "compound": "Cc1cccc(Nc2nc(N)c3ccccc3n2)c1 [MMV019110]",
    "test.target": "P. falciparum 3D7 trophozoites",
    "3-phosphoglycerate": 0.2769
  }
]
